target: Cellular tumor antigen p53 (Homo sapiens); assay: Primary qHTS for small molecule compounds that upregulate eGFP-tagged delta133p53alpha (in N-terminal) cells. (AID 2060322); details: NCI-H358 eGFP-delta133p53alpha fluorescence, 24 h; active compounds read high;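 note: cells pre-induced with doxycycline then dosed without doxycycline; series mostly up to about 56 µM; 0% = DMSO vehicle and 100% = reference activator; nearly all actives have a fitted effect of over 75% in size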
Records with an inconclusive call do not appear.
We begin with a simple list: items and their reported activation.
Numbers only; they are read as %.

Check out these entries, answers already filled in.
Exercise: # query: activation of entry `N#CN1CCC[C@@H](n2nc(-c3ccc(Oc4ccc(F)cc4F)cc3)c(C(N)=O)c2N)C1`
Key: -16.1

Exercise: Consider the compound CC(=O)O[C@@H]1[C@H](O[C@@H]2OC[C@](O)(CO)[C@H]2O)[C@@H](O[C@@H]2O[C@@H](C)[C@H](O)[C@@H](O[C@@H]3O[C@H](CO)[C@@H](O)[C@H](O)[C@H]3O)[C@H]2O)[C@H](OC(=O)[C@]23CCC(C)(C)C[C@H]2C2=CCC4[C@@]5(C)C[C@H](O)[C@H](O[C@@H]6O[C@H](C(=O)O)[C@@H](O)[C@H](O)[C@H]6O)[C@@](C)(C(=O)O)C5CC[C@@]4(C)[C@]2(C)CC3)O[C@@H]1C (stereo partly specified) and give its measured activation.
Key: -16.8

Exercise: Any idea what activation was measured for `FC(F)(F)C(F)(F)C(F)(F)C(F)(F)C(F)(F)C(F)(F)C(F)(F)C(F)(F)Br` ?
Key: -14.1

Further cases:
Exercise: Please report the recorded activation for `CCCCCCCCCCCCCCCC(=O)O` .
Key: -13.4

Exercise: Need activation, item CC1=CC2/C=C(\C)CC[C@@H](O)[C@@H](O)[C@@H]3O[C@@H]3C(=O)[C@]23C(=O)N[C@@H](CC(C)C)[C@@H]3[C@@H]1C (stereo partly specified)
Key: 0
